This collection of values is drawn from patent US5563125A.

// IC50 lookup, one value per entry
test system: CCRF-CEM cells (MTA phosphorylase-deficient); assay: Growth inhibition of CCRF-CEM cells; assay type: cell-based, human; conditions: 96 h
Give a bare numeral; the unit µM is implied.

Give reported IC50 for Nc1ncnc2c1ncn2[C@@H]1O[C@H](CSCCCl)[C@@H](O)[C@H]1O (CCRF-CEM cells (MTA phosphorylase-deficient))
240

Others:
Give reported IC50 for Nc1ncnc2c1ncn2[C@@H]1O[C@H](CSCCBr)[C@@H](O)[C@H]1O (CCRF-CEM cells (MTA phosphorylase-deficient))
250

###

Target: T. b. brucei MTA phosphorylase (Trypanosoma brucei, UniProt Q57XS4)
Construct: MTA or analogs as substrates
Sequence (Q57XS4 entry or part of it): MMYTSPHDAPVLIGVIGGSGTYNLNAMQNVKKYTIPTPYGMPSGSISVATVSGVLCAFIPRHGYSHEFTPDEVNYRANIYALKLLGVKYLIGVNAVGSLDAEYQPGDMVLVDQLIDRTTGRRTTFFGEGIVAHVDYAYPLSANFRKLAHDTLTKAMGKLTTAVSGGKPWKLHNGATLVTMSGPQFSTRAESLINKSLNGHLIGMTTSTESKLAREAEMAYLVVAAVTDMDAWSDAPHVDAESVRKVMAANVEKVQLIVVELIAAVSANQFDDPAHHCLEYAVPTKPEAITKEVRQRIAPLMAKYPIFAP
Assay: T. b. brucei MTA phosphorylase substrate assay
Assay type: biochemical
Conditions: No PO4, 200 μM substrate, relative to MTA
Procedure: ^a MTA phosphorylase was assayed according to Ghoda et al., using 200 μM MTA (saturating) or analogs as substrates. Specific activities of the dialyzed enzyme preparations were with 50 mM PO4, 104.97 n moles/mg protein/h; without PO4, 28.27 n moles/mg protein/h. Results are expressed as percent activity compared to as substrate with and without PO4, respectively.
assay_metric: Percent Control Activity (%)
Give a bare numeral; the unit % is implied.

Read off the recorded Percent Control Activity for Nc1ncnc2c1ncn2[C@@H]1O[C@H](CSCCF)[C@@H](O)[C@H]1O
109.1

Read off the recorded Percent Control Activity for Nc1ncnc2c1ncn2[C@@H]1O[C@H](CSCCCO)[C@@H](O)[C@H]1O
101.8

Read off the recorded Percent Control Activity for Nc1ncnc2c1ncn2[C@@H]1O[C@H](CSCCCl)[C@@H](O)[C@H]1O
94.4

Others:
Read off the recorded Percent Control Activity for CCCSC[C@H]1O[C@@H](n2cnc3c(N)ncnc32)[C@H](O)[C@@H]1O [PTA, reference compound]
96.4

Read off the recorded Percent Control Activity for CCSC[C@H]1O[C@@H](n2cnc3c(N)ncnc32)[C@H](O)[C@@H]1O [ETA, reference compound]
100

Read off the recorded Percent Control Activity for CSC[C@H]1O[C@@H](n2cnc3c(N)ncnc32)[C@H](O)[C@@H]1O [MTA, 5'-deoxy-5'-methylthioadenosine, reference compound]
100

Read off the recorded Percent Control Activity for Nc1ncnc2c1ncn2[C@@H]1O[C@H](CSCCO)[C@@H](O)[C@H]1O [HETA, 5'-deoxy-5'-(hydroxyethylthio)adenosine]
100

Read off the recorded Percent Control Activity for Nc1ncnc2c1ncn2[C@@H]1O[C@H](CSCCBr)[C@@H](O)[C@H]1O
120

Read off the recorded Percent Control Activity for Nc1ncnc2c1ncn2[C@@H]1O[C@H](CSCCCF)[C@@H](O)[C@H]1O [MFPTA, reference compound]
116.4

###

// pIC50 lookup, one value per entry
test system: T. b. brucei procyclic trypanosomes (Lab 110 EATRO strain); test: In vitro antitrypanosomal activity, procyclic trypanosomes in T2 medium; assay type: cell-based, Trypanosoma brucei brucei; conditions: Trypanosoma brucei, 3-5 days
// returns pIC50 (minus log10 of molar concentration), number only

Give reported pIC50 for N=C(N)c1ccc(OCCCCCOc2ccc(C(=N)N)cc2)cc1 [PENTAMIDINE] (T. b. brucei procyclic trypanosomes (Lab 110 EATRO strain))
6.70

Others:
Give reported pIC50 for Nc1ncnc2c1ncn2[C@@H]1O[C@H](CSCCF)[C@@H](O)[C@H]1O [MFETA] (T. b. brucei procyclic trypanosomes (Lab 110 EATRO strain))
5.30

Give reported pIC50 for Nc1ncnc2c1ncn2[C@@H]1O[C@H](CSCCCO)[C@@H](O)[C@H]1O [HPTA] (T. b. brucei procyclic trypanosomes (Lab 110 EATRO strain))
3.77
